- assay_summary: Content of the drugs in blood and brain after intramuscular administration (Askew method)
- Format: in vivo, Ratten
- applied_conditions: rat, blood, im; Blut; Dosis 50 mg/kg intramuskulär; 5 min; Ratten; read-out: Konzentration (µg/g) 5 min
- Protocol: Mit Hilfe der Methode von Askew (1956) wurde in der Dynamik der Gehalt des erfindungsgemäßen Arzneimittels im Blut und Gehirn der Tiere untersucht. Die Untersuchungen wurden im Vergleich zum bekannten Präparak TMB-4 vorgenommen. Die Geschwindigkeit des Eindringens beider Präparate ins Blut und deren Konzentration wurden bei der-intramuskulären Einführung in Dosen von 20 ..und 50 mg/kg und der Gehirnspiegel - in einer Dosis von 50 mg/kg bestimmt. […]
Here the recorded concentration at 5 min is given for each entry.
Number in µg/g, nothing else.

molecule	unit_name	result
ON=Cc1cc[n+](CCC[n+]2ccc(C=NO)cc2)cc1 [TMB-4, reference compound]	µg/g	16.6

Below: the item to evaluate.
Specify concentration at 5 min for C=CC[n+]1ccccc1C=NO and stop.
16.2

* * *

- assay_summary: Content of the drugs in blood and brain after intramuscular administration (Askew method)
- Assay type: in vivo, Ratten
- applied_conditions: rat, blood, im; Blut; Dosis 20 mg/kg intramuskulär; IO min; Ratten; read-out: Konzentration (µg/g) IO min (converted)
measure: concentration at 10 min (µg/g)
Number only, in µg/g; omit the unit.

Give reported concentration at 10 min value for ON=Cc1cc[n+](CCC[n+]2ccc(C=NO)cc2)cc1 [TMB-4, reference compound]
4.42

For the compound C=CC[n+]1ccccc1C=NO [das erfindungsgemässe Arzneimittel, N-Allyl-2-pyridinaldoxiinbromid] , report concentration at 10 min.
4.95

* * *

Each entry below carries its reported concentration at 20 min.
- assay_summary: Content of the drugs in blood and brain after intramuscular administration (Askew method)
- Assay type: in vivo, Ratten
- applied_conditions: rat, blood, im; Blut; Dosis 20 mg/kg intramuskulär; 20 min; Ratten; read-out: Konzentration (µg/g) 20 min (converted)
The answer is to be given in µg/g; state only the numeric part.

compound	concentration at 20 min / µg/g
ON=Cc1cc[n+](CCC[n+]2ccc(C=NO)cc2)cc1 [TMB-4, reference compound]	4.85

Now take the following compound into account.
Dear colleague, please send me the reported concentration at 20 min for C=CC[n+]1ccccc1C=NO when you can.
5.16

* * *

- assay_summary: Acute toxicity, single administration, mice
- applied_conditions: mouse, in vivo, sc; Mäuse, subkutan; read-out: LD50 (mg/kg) und deren zuverlässige Grenzen P = 0,05
measure: LD50

Give the reported LD50 for this compound. C=CC[n+]1ccccc1C=NO
115 mg/kg

* * *

- assay_summary: Content of the drugs in blood and brain after intramuscular administration (Askew method)
- Format: in vivo, Ratten
- applied_conditions: rat, blood, im; Blut; Dosis 50 mg/kg intramuskulär; I St.; Ratten; read-out: Konzentration (µg/g) I St.
- Method: Mit Hilfe der Methode von Askew (1956) wurde in der Dynamik der Gehalt des erfindungsgemäßen Arzneimittels im Blut und Gehirn der Tiere untersucht. Die Untersuchungen wurden im Vergleich zum bekannten Präparak TMB-4 vorgenommen. Die Geschwindigkeit des Eindringens beider Präparate ins Blut und deren Konzentration wurden bei der-intramuskulären Einführung in Dosen von 20 ..und 50 mg/kg und der Gehirnspiegel - in einer Dosis von 50 mg/kg bestimmt. […]
measure: concentration at 1 h (µg/g)
A number alone suffices; assume µg/g.

Item ON=Cc1cc[n+](CCC[n+]2ccc(C=NO)cc2)cc1 [TMB-4, reference compound] : provide concentration at 1 h
11.5

* * *

- assay_summary: Acute toxicity, single administration, rats
- applied_conditions: rat, in vivo, sc; Ratten, subkutan; read-out: LD50 (mg/kg) und deren zuverlässige Grenzen P = 0,05
measure: LD50 (mg/kg)
// note: answer is a bare numeric in mg/kg

Supply measured LD50 of C=CC[n+]1ccccc1C=NO in your reply.
200

* * *

- assay_summary: Content of the drugs in blood and brain after intramuscular administration (Askew method)
- Type: in vivo, Ratten
- applied_conditions: rat, blood, im; Blut; Dosis 50 mg/kg intramuskulär; 20 min; Ratten; read-out: Konzentration (µg/g) 20 min (converted)
measure: concentration at 20 min (µg/g)
Response body: numeric value in µg/g, unit text excluded.

compound	concentration at 20 min / µg/g
ON=Cc1cc[n+](CCC[n+]2ccc(C=NO)cc2)cc1 [TMB-4, reference compound]	18.4

Please find the next compound below.
Report concentration at 20 min, nothing else, for this compound: C=CC[n+]1ccccc1C=NO
18

* * *

Below, each entry is listed alongside its reported concentration at 10 min.
- assay_summary: Content of the drugs in blood and brain after intramuscular administration (Askew method)
- Type: in vivo, Ratten
- applied_conditions: rat, blood, im; Blut; Dosis 50 mg/kg intramuskulär; IO min; Ratten; read-out: Konzentration (µg/g) IO min (converted)
# unit: µg/g | format: bare number

compound	unit_name	result
ON=Cc1cc[n+](CCC[n+]2ccc(C=NO)cc2)cc1 [TMB-4, reference compound]	µg/g	21.1

Shift focus to the following entry.
State its concentration at 10 min for this compound: C=CC[n+]1ccccc1C=NO
19

* * *

- assay_summary: Acute toxicity, single administration, rats
- applied_conditions: rat, in vivo, po; Ratten, enteral; read-out: LD50 (mg/kg) und deren zuverlässige Grenzen P = 0,05
measure: LD50 (mg/kg)
Quick reminder: number only, in mg/kg, skip the unit.

Give recorded LD50. C=CC[n+]1ccccc1C=NO
260

* * *

- assay_summary: Acute toxicity, single administration, cats
- applied_conditions: cat, in vivo, im; Katzen, intramuskulär; read-out: LD50 (mg/kg) und deren zuverlässige Grenzen P = 0,05
measure: LD50 (mg/kg)
Write it as a number; the unit mg/kg goes unstated.

Report measured LD50; entry is C=CC[n+]1ccccc1C=NO [das erfindungsgemässe Arzneimittel, N-Allyl-2-pyridinaldoxiinbromid]
126

* * *

- assay_summary: Acute toxicity, single administration, rats
- applied_conditions: rat, in vivo, ip; Ratten, intraperitoneal; read-out: LD50 (mg/kg) und deren zuverlässige Grenzen P = 0,05
measure: LD50 (mg/kg)
I only need the number, in mg/kg, no unit after it.

Give the measured LD50 for C=CC[n+]1ccccc1C=NO
135

* * *

- assay_summary: Content of the drugs in blood and brain after intramuscular administration (Askew method)
- Format: in vivo, Ratten
- applied_conditions: rat, blood, im; Blut; Dosis 20 mg/kg intramuskulär; 3 St.; Ratten; read-out: Konzentration (µg/g) 3 St.
measure: concentration at 3 h (µg/g)
Give the number; µg/g is assumed, so skip it.

Check the records and state concentration at 3 h for C=CC[n+]1ccccc1C=NO
0.92

* * *

A collection of molecules and their measured concentration at 1 h
- assay_summary: Content of the drugs in blood and brain after intramuscular administration (Askew method)
- Type: in vivo, Ratten
- applied_conditions: rat, blood, im; Blut; Dosis 20 mg/kg intramuskulär; I St.; Ratten; read-out: Konzentration (µg/g) I St.
Hi! Could you send only the number? It should be in µg/g, unit omitted.

Given C=CC[n+]1ccccc1C=NO , respond with its concentration at 1 h.
4.4

Write down concentration at 1 h measured for item ON=Cc1cc[n+](CCC[n+]2ccc(C=NO)cc2)cc1 [TMB-4, reference compound]
2.75

* * *

- assay_summary: Content of the drugs in blood and brain after intramuscular administration (Askew method)
- Assay type: in vivo, Ratten
- applied_conditions: rat, brain, im; Gehirn; Dosis 50 mg/kg intramuskulär; 5 min; Ratten; read-out: Konzentration (µg/g) 5 min
A collection of compounds and their measured concentration at 5 min
The reply must contain the numeric value and, after it, the unit.

compound	result
ON=Cc1cc[n+](CCC[n+]2ccc(C=NO)cc2)cc1 [TMB-4, reference compound]	0.86 µg/g

Now let's try a different one.
Consider the compound C=CC[n+]1ccccc1C=NO and give its recorded concentration at 5 min.
2.64 µg/g

* * *

Below, each entry is listed alongside its reported concentration at 1 h.
- assay_summary: Content of the drugs in blood and brain after intramuscular administration (Askew method)
- Format: in vivo, Ratten
- applied_conditions: rat, brain, im; Gehirn; Dosis 50 mg/kg intramuskulär; I St.; Ratten; read-out: Konzentration (µg/g) I St.
Kindly answer with a numeric value in µg/g, unit omitted.

molecule	concentration at 1 h [µg/g]
ON=Cc1cc[n+](CCC[n+]2ccc(C=NO)cc2)cc1 [TMB-4, reference compound]	1.5

Fill in concentration at 1 h for record C=CC[n+]1ccccc1C=NO
2.06

* * *

- assay_summary: Content of the drugs in blood and brain after intramuscular administration (Askew method)
- Format: in vivo, Ratten
- applied_conditions: rat, blood, im; intramuskuläre Einführung; summary statement; read-out: Maximalniveau erreicht nach
measure: Tmax

Dear colleague, please send me the reported Tmax for C=CC[n+]1ccccc1C=NO when you can.
20 to 30 min

* * *

- assay_summary: Acute toxicity, single administration, dogs
- applied_conditions: dog, in vivo, sc; Hunde, subkutan; read-out: LD50 (mg/kg) und deren zuverlässige Grenzen P = 0,05
measure: LD50 (mg/kg)
Please state the figure in mg/kg; there is no need to write the unit.

Answer with reported LD50 of C=CC[n+]1ccccc1C=NO
112
